target: human FGFR3 V555M enzyme (cytoplasmic domain carrying V555M mutation) (Homo sapiens, UniProt P22607, V555M); construct: cytoplasmic domain carrying V555M mutation, from Carna Biosciences; purchased Carna Biosciences; experiment: FGFR3 V555M mobility shift assay (enzymatic assay, Caliper); type: biochemical; details: 30 μM ATP, 45 minutes at 30° C.
Sequence (P22607 397-806 V555M limits assumed): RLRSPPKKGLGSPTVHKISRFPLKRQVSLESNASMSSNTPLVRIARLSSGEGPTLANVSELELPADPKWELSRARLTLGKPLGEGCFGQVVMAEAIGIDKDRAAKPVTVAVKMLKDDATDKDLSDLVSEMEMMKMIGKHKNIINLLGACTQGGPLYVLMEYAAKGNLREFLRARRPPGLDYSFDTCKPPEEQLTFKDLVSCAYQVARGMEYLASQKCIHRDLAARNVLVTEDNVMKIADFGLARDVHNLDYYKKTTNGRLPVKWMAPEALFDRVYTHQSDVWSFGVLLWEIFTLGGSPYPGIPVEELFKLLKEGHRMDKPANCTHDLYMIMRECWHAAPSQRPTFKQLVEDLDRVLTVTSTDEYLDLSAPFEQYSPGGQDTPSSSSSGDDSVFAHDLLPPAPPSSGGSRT
pIC50: −log10 of the molar value.
reported_property: pIC50

>>> reported("CCn1cc2[nH]c(=O)c(-c3nc4c(F)c(OC)c(OC)cc4[nH]3)c(N[C@@H](C)c3ncccn3)c2n1 [Compound 41]")
8.95

A. CCC(Nc1c(-c2nc3cc(OC)c(OC)cc3[nH]2)c(=O)[nH]c2cn(CC)nc12)c1ncccn1 (single isomer, unassigned) [Compound 44]
B. COc1cc2nc(-c3c(NC(c4ncccn4)C4CC4)c4nn(C)cc4[nH]c3=O)[nH]c2cc1OC (single isomer, unassigned) [Compound 46]
Could you tell me which of these two has the smaller pIC50 figure? First: A Second: B Selection: enter the item's label.
A
(A: 8.93, B: 9.25)

Where do these numbers come from? They come from patent US11384099B2.
